assay: p53 small molecule agonists, cell-based qHTS assay (AID 1963582); details: HCT-116 p53RE-bla reporter, beta-lactamase FRET ratio, 16 h; series mostly up to 66 µM
Records with an inconclusive call do not appear. Calls of active or inactive are those of the source. Calls follow the shape of the dose curve; as a rule, active = well fitted activation curve with a large enough effect in the signal ratio in the repeat runs (not every such curve was filed as active); inconclusive = weak or mixed curves; inactive = flat fitted curve, though single readings scatter; the % refers to the signal ratio.
EXPERIMENTAL_READOUT: outcome

// worked examples, outcome included
[
  {
    "COMPOUND": "O=C(O)CBr",
    "EXPERIMENTAL_READOUT": "outcome",
    "RESULT": "inactive"
  },
  {
    "COMPOUND": "CC(C)(C)C(O)C(Oc1ccc(Cl)cc1)n1cncn1 (stereo unspecified)",
    "EXPERIMENTAL_READOUT": "outcome",
    "RESULT": "inactive"
  },
  {
    "COMPOUND": "CN(C)c1ccc(N=Nc2ccccc2)cc1",
    "EXPERIMENTAL_READOUT": "outcome",
    "RESULT": "inactive"
  },
  {
    "COMPOUND": "Nc1cc(Cl)ccc1Cl",
    "EXPERIMENTAL_READOUT": "outcome",
    "RESULT": "inactive"
  },
  {
    "COMPOUND": "COC(=O)N(C(=O)N1COC2(C(=O)OC)Cc3cc(Cl)ccc3C2=N1)c1ccc(OC(F)(F)F)cc1 (stereo unspecified)",
    "EXPERIMENTAL_READOUT": "outcome",
    "RESULT": "inactive"
  }
]

// returns reported outcome for input "COC(=O)c1ccccc1S(=O)(=O)NC(=O)N(C)c1nc(C)nc(OC)n1"
inactive

// returns reported outcome for input CCOc1cccc(C2(N3CCN(c4ccccc4)CC3)CCC(C)CC2)c1 (stereo unspecified)
inactive

// returns reported outcome for input "C=CC(=O)OCCCCOC(=O)C=C"
inactive

// returns reported outcome for input CCOC(=O)C(SP(=S)(OC)OC)c1ccccc1 (stereo unspecified)
inactive

// returns reported outcome for input CC(C)NCC(O)c1ccc([N+](=O)[O-])cc1 (stereo unspecified)
inactive

// returns reported outcome for input CC(Cc1ccc(OCC(=O)O)cc1)NCC(O)c1csc(C(F)(F)F)n1 (stereo unspecified)
inactive
